Biological target: CDK2/Cyclin E1 (Homo sapiens, UniProt P24941)
Assay: CDK2/Cyclin E1 TR-FRET biochemical assay, 1 mM ATP
Conditions: 0.15 μM Rb (Ser780)-biotin substrate, 90 min reaction, Table 2
quantity.kind: IC50 (nM)
Give just the numeric value; nM need not be written.

Can you share its IC50? I mean this compound: NS(=O)(=O)c1ccc(Nc2cc(C3CCC(c4ncc(C5CC5)o4)C3)[nH]n2)c(F)c1 (stereo not shown) 131

Can you share its IC50? I mean this compound: CC(C)(C)c1ccnc(C2CCC(c3cc(Nc4ccc(S(N)(=O)=O)cc4F)n[nH]3)C2)c1 (stereo not shown) 100

Can you share its IC50? I mean this compound: Cc1nc(C2CCC(c3cc(Nc4ccc(S(N)(=O)=O)cc4F)n[nH]3)C2)oc1C(C)(C)C (stereo not shown) 79

Can you share its IC50? I mean this compound: CC(C)(C)c1cccc(C2CCC(c3cc(Nc4ccc5c(c4F)CS(=O)(=O)N5)n[nH]3)C2)n1 (stereo not shown) 84

###

Exercise: for every item that follows, state its recorded IC50.
Target: CDK2/Cyclin E1 (Homo sapiens, UniProt P24941)
Assay: CDK2/Cyclin E1 TR-FRET biochemical assay, 0.060 mM ATP
Conditions: 0.15 μM Rb (Ser780)-biotin substrate, 120 min reaction, Table 1
Give just the numeric value; µM need not be written.

Can you share its IC50? I mean this molecule: O=S1(=O)Cc2cc(Nc3cc(C4CCC(c5ncc(CO)o5)C4)[nH]n3)ccc2N1 (centres unmarked) 0.041

Can you share its IC50? I mean this molecule: CC1(C)CC(=O)N([C@H]2CC[C@@H](c3cc(Nc4ccc5c(c4F)CNS5(=O)=O)n[nH]3)C2)C1=O (relative stereo) 0.229

Can you share its IC50? I mean this molecule: CC(C)c1ccnn([C@H]2CC[C@@H](c3cc(Nc4ccc5c(c4F)CNS5(=O)=O)n[nH]3)C2)c1=O (relative stereo) 0.14

Can you share its IC50? I mean this molecule: CC(C)(C)c1cnc([C@@H]2CC[C@H](c3cc(Nc4ccc5c(c4)CS(=O)(=O)N5)n[nH]3)C2)o1 (relative stereo) 0.0046

Can you share its IC50? I mean this molecule: CCc1cnc(C2CCC(c3cc(Nc4ccc5c(c4)CS(=O)(=O)N5)n[nH]3)C2)o1 (centres unmarked) 0.0062

###

Exercise: for every item that follows, state its recorded IC50.
Target: CDK1/Cyclin B1 (Homo sapiens)
Experiment: CDK1/Cyclin B1 TR-FRET biochemical assay, 1 mM ATP
Details: 0.15 μM Rb (Ser780)-biotin substrate, 90 min reaction, Table 2
Give just the numeric value; µM need not be written.

Record CC(C)(C)c1cccc(C2CCC(c3cc(Nc4ccc5c(c4F)CS(=O)(=O)N5)n[nH]3)C2)n1 (centres unmarked) : what is its IC50 with CDK1/Cyclin B1 (Homo sapiens)? 3.93

Record CC(C)(C)c1csnc1O[C@@H]1CC[C@H](c2cc(Nc3ccc4c(c3F)CNS4(=O)=O)n[nH]2)C1 (relative stereo) : what is its IC50 with CDK1/Cyclin B1 (Homo sapiens)? 3.5

Record CC(C)(O)c1cnc(C2CCC(c3cc(Nc4ccc5c(c4F)CS(=O)(=O)C5)n[nH]3)C2)o1 (centres unmarked) : what is its IC50 with CDK1/Cyclin B1 (Homo sapiens)? 0.537

Record CC(C)(C)c1cnc(C2CCC(c3cc(Nc4ccc5c(c4F)CN=S5(C)=O)n[nH]3)C2)o1 (centres unmarked) : what is its IC50 with CDK1/Cyclin B1 (Homo sapiens)? 0.348

Record CC(C)c1cnc(C2CCC(c3cc(Nc4ccc5c(c4F)CCS(=O)(=O)N5)n[nH]3)C2)o1 (centres unmarked) : what is its IC50 with CDK1/Cyclin B1 (Homo sapiens)? 1.1

###

Target: CDK1/Cyclin B1 (Homo sapiens, UniProt P06493)
Sequence (P06493 whole entry): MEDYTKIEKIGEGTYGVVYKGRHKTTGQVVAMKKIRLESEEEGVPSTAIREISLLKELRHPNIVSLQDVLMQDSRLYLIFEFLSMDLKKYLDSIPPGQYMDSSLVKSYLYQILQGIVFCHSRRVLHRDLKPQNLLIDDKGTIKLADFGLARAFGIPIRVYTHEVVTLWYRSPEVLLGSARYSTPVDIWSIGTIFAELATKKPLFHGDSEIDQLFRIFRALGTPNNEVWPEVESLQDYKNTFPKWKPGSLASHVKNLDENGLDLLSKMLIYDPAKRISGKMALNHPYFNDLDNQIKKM
Sequence (P14635 whole entry partner): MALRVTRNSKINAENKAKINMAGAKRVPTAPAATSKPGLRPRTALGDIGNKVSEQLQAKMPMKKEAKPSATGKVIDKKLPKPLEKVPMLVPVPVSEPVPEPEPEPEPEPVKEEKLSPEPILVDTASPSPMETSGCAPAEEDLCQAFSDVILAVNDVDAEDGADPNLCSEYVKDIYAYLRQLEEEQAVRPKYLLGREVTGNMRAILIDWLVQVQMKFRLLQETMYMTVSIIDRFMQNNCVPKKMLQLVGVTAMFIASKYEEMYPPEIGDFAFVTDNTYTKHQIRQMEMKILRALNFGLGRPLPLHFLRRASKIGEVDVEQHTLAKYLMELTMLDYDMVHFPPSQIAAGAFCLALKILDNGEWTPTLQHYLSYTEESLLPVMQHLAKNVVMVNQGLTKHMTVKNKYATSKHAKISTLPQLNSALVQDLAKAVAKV
Test: CDK1/Cyclin B1 TR-FRET biochemical assay, 1 mM ATP
Settings: 0.15 μM Rb (Ser780)-biotin substrate, 90 min reaction, Table 2
Exercise: for every item that follows, state its recorded pIC50.
# pIC50: negative log10 of molar concentration; output just the value

Can you share its pIC50? I mean this compound: CC(C)(C)c1coc(C2CCC(c3cc(Nc4ccc5c(c4)CS(=O)(=O)N5)n[nH]3)C2)n1 (stereo not drawn) 5.30

Can you share its pIC50? I mean this compound: CC(C)c1ccnc(C2CCC(c3cc(Nc4ccc5c(c4F)CNS5(=O)=O)n[nH]3)C2)n1 (stereo not drawn) 6.17

Can you share its pIC50? I mean this compound: CC(C)(C)c1ncccc1O[C@@H]1CC[C@H](c2cc(Nc3ccc4c(c3)CS(=O)(=O)N4)n[nH]2)C1 (relative stereo) 5.24

Can you share its pIC50? I mean this compound: CC(C)c1cnc(C2CCC(c3cc(Nc4ccc5c(c4)CN=S5(C)=O)n[nH]3)C2)o1 (stereo not drawn) 5.63

###

Biological target: CDK1/Cyclin B1 (Homo sapiens, UniProt P06493)
Test: CDK1/Cyclin B1 TR-FRET biochemical assay, 0.015 mM ATP
Details: 0.15 μM Rb (Ser780)-biotin substrate, 120 min reaction, Table 1
pIC50: −log10 of the molar value.
Cut-off 6 on pIC50, inclusive. At or above means label 1; below means label 0.

Quick check, pIC50 >= 6? CC(C)N1CCN([C@H]2CC[C@@H](c3cc(Nc4ccc5c(c4F)CNS5(=O)=O)n[nH]3)C2)C1=O (relative stereo) [Example 81] label 0

Quick check, pIC50 >= 6? O=S1(=O)NCc2c1ccc(Nc1cc([C@H]3CC[C@@H](Oc4cc(C(F)(F)F)n[nH]4)C3)[nH]n1)c2F (relative stereo) [Example 69] label 0

Quick check, pIC50 >= 6? CC(C)c1csnc1O[C@@H]1CC[C@H](c2cc(Nc3ccc4c(c3F)CNS4(=O)=O)n[nH]2)C1 (relative stereo) [Example 55] label 1

Quick check, pIC50 >= 6? CC(C)N1CC(=O)N([C@H]2CC[C@@H](c3cc(Nc4ccc5c(c4F)CNS5(=O)=O)n[nH]3)C2)C1=O (relative stereo) [Example 82] label 0

Quick check, pIC50 >= 6? CC(C)(C)n1cnnc1O[C@@H]1CC[C@H](c2cc(Nc3ccc4c(c3F)CNS4(=O)=O)n[nH]2)C1 (relative stereo) [Example 59] label 1

Quick check, pIC50 >= 6? Cn1nccc1O[C@@H]1CC[C@H](c2cc(Nc3ccc4c(c3F)CNS4(=O)=O)n[nH]2)C1 (relative stereo) [Example 63] label 0

Quick check, pIC50 >= 6? O=c1c(C2CC2)csn1[C@H]1CC[C@@H](c2cc(Nc3ccc4c(c3F)CNS4(=O)=O)n[nH]2)C1 (relative stereo) [Example 54] label 1

Quick check, pIC50 >= 6? CC1(C)CN([C@H]2CC[C@@H](c3cc(Nc4ccc5c(c4F)CNS5(=O)=O)n[nH]3)C2)C(=O)N1 (relative stereo) [Example 85] label 1

Quick check, pIC50 >= 6? CC(C)c1n[nH]cc1O[C@@H]1CC[C@H](c2cc(Nc3ccc4c(c3F)CNS4(=O)=O)n[nH]2)C1 (relative stereo) [Example 73] label 1

Quick check, pIC50 >= 6? O=S1(=O)NCc2c1ccc(Nc1cc([C@H]3CC[C@@H](Oc4ccnn4-c4ccccc4)C3)[nH]n1)c2F (relative stereo) [Example 70] label 0

###

Exercise: for every item that follows, state its recorded pIC50.
Molecular target: CDK2/Cyclin E1 (Homo sapiens, UniProt P24941)
Experiment: CDK2/Cyclin E1 TR-FRET biochemical assay, 1 mM ATP
Conditions: 0.15 μM Rb (Ser780)-biotin substrate, 90 min reaction, Table 2
# pIC50: negative log10 of molar concentration; output just the value

Can you share its pIC50? I mean this compound: CC(C)(C)n1ccc(C2CCC(c3cc(Nc4ccc5c(c4F)CNS5(=O)=O)n[nH]3)C2)n1 (stereo not drawn) 6.34

Can you share its pIC50? I mean this compound: CCc1ccnc(C2CCC(c3cc(Nc4ccc5c(c4F)CNS5(=O)=O)n[nH]3)C2)n1 (stereo not drawn) 7.40

Can you share its pIC50? I mean this compound: CN1c2ccc(Nc3cc([C@H]4CC[C@@H](c5ncc(C(C)(C)C)o5)C4)[nH]n3)cc2CS1(=O)=O 9.22

Can you share its pIC50? I mean this compound: CC(C)(C)c1cncc(C2CCC(c3cc(Nc4ccc5c(c4F)CNS5(=O)=O)n[nH]3)C2)c1 (stereo not drawn) 5.90

Can you share its pIC50? I mean this compound: CC(C)(C)c1ccc([C@H]2CC[C@H](c3cc(Nc4ccc5c(c4F)CNS5(=O)=O)n[nH]3)C2)o1 (relative stereo) 5.07

Can you share its pIC50? I mean this compound: CC(C)c1cnc(C2CCC(c3cc(Nc4ccc5c(c4)CS(=O)(=O)N5C)n[nH]3)C2)o1 (stereo not drawn) 7.85

Can you share its pIC50? I mean this compound: Cc1cccc(C2CCC(c3cc(Nc4cc5c(cc4F)S(=O)(=O)NC5)n[nH]3)C2)n1 (stereo not drawn) 5.40

Can you share its pIC50? I mean this compound: CC(C)(O)Cn1cc(C2CCC(c3cc(Nc4ccc5c(c4F)CNS5(=O)=O)n[nH]3)C2)cn1 (stereo not drawn) 6.09

Can you share its pIC50? I mean this compound: Cc1ccnc(C2CCC(c3cc(Nc4ccc5c(c4F)CNS5(=O)=O)n[nH]3)C2)n1 (stereo not drawn) 6.97

Can you share its pIC50? I mean this compound: O=S1(=O)NCc2c1ccc(Nc1cc(C3CCC(c4cnc(C5CC5)o4)C3)[nH]n1)c2F (stereo not drawn) 5.98

Can you share its pIC50? I mean this compound: O=S1(=O)NCc2c1ccc(Nc1cc(C3CCC(c4ncc(C5CC5)o4)C3)[nH]n1)c2F (stereo not drawn) 7.01

Can you share its pIC50? I mean this compound: CC(C)c1cnc(C2CCC(c3cc(Nc4ccc(S(N)(=O)=O)cc4F)n[nH]3)C2)o1 (stereo not drawn) 7.03

Can you share its pIC50? I mean this compound: CC(C)(O)c1cnc(C2CCC(c3cc(Nc4ccc5c(c4F)CNS5(=O)=O)n[nH]3)C2)o1 (stereo not drawn) 7.49

Can you share its pIC50? I mean this compound: CC(C)(C)c1ccnnc1O[C@@H]1CC[C@H](c2cc(Nc3ccc4c(c3F)CNS4(=O)=O)n[nH]2)C1 (relative stereo) 9.30

Can you share its pIC50? I mean this compound: CC(C)(C)c1cnc(C2CCC(c3cc(Nc4ccc5c(c4)CN=S5(C)=O)n[nH]3)C2)o1 (single isomer, unassigned) [Example 169d] 6.76

Can you share its pIC50? I mean this compound: CC(C)(C)c1cnc(C2CCC(c3cc(Nc4ccc5c(c4)CN=S5(C)=O)n[nH]3)C2)o1 (single isomer, unassigned) [Example 169b] 7.68

Can you share its pIC50? I mean this compound: CC(C)(C)c1cnc(C2CCC(c3cc(Nc4cc5c(cc4F)S(=O)(=O)NC5)n[nH]3)C2)o1 (single isomer, unassigned) [Example 17a] 8.41

Can you share its pIC50? I mean this compound: CC(C)(C)c1cnnc(C2CCC(c3cc(Nc4ccc5c(c4F)CS(=O)(=O)N5)n[nH]3)C2)c1 (stereo not drawn) 7.80

Can you share its pIC50? I mean this compound: CC(C)(C)c1cnc(C2CCC(c3cc(Nc4ccc5c(c4F)CCS(=O)(=O)N5)n[nH]3)C2)o1 (stereo not drawn) 9.05
